Test system: SR leukemia
Test: NCI tumour cell line growth inhibition, 48 h
Overview of recorded log10 TGI for various compounds
ASSAY_METRIC: log10 TGI (log10 of the value in µM)

{"columns": ["COMPOUND", "log10 TGI"],
 "data": [
  ["CC(=O)N1CC(Nc2ccc(OC(F)(F)F)cc2)=CC1=O", 1.72],
  ["CC1CC[C@@]2(OC1)OC1C[C@H]3[C@@H]4C/C(=N\\N(C)C)[C@@]5(O)CC(O)CC[C@]5(C)[C@H]4CC[C@]3(C)C1[C@@H]2C (stereo not given in full)", 1.74],
  ["CCOc1ccc(/C(O)=C/c2nc3ccccc3nc2/C=C(\\O)c2ccc(OCC)cc2)cc1", 1.42],
  ["CCN(CC)CCCNc1cccc2c(SCc3ccccc3)ccnc12", 0.65],
  ["COC(=O)C1=C(C(=O)OC)C2(OC(C)=O)c3ccccc3-c3ccccc3C12 (stereo not given)", 1.22],
  ["CN(C)c1ccc(C(=C2C=CC(=[N+](C)C)C=C2)c2ccc(N(C)C)cc2)cc1 (tested in a mixture with another compound)", -0.97]
]}

====

System: HS 578T breast
Assay: NCI tumour cell line growth inhibition, 48 h
Where a SMILES comes first, the peptide text is derived from it. [ ]: non-standard residue; d: D form. The star is where a group is joined. AllylGly = C=CC[CH](N)C(=O)O; Boc = CC(C)(C)OC(=O)*; OtBu = CC(C)(C)O*
Please enter fulfilled where TGI is greater than or equal to 8 µM, and not fulfilled where it is lower.

{"columns": ["COMPOUND", "MEASUREMENT_TARGET", "ANSWER_LABEL"],
 "data": [
  ["N#Cc1c(-c2ccc([N+](=O)[O-])cc2)cc(-c2ccc(Nc3ccnc4cc(C(F)(F)F)ccc34)cc2)nc1N", "HS 578T breast", "fulfilled"],
  ["O=C(O)C1C(C(=O)Nc2ccc3c(c2)Cc2ccccc2-3)C2(Cl)C(Cl)=C(Cl)C1(Cl)C2(Cl)Cl (stereo unspecified)", "HS 578T breast", "fulfilled"],
  ["COc1cc(CCCOC(=O)/C=C/c2ccc(O)c(O)c2)cc(O)c1O", "HS 578T breast", "fulfilled"],
  ["CC(C)[C@@]12C[C@@H](OC(=O)[C@H]3CO3)[C@@](C)(O1)[C@@H]1CC[C@@H](C)[C@H]1[C@@H]2OC(=O)/C=C/c1ccccc1", "HS 578T breast", "not fulfilled"],
  ["CC(=O)OC1CC(n2cc(F)c(=O)[nH]c2=O)OC1CO (stereo unspecified)", "HS 578T breast", "fulfilled"],
  ["N#CCCN(CCC#N)c1ccc(C(N=Nc2ccccc2)=Nc2ccccc2)cc1", "HS 578T breast", "fulfilled"],
  ["C1CCN(CCC2CCCCN2)CC1 (stereo unspecified)", "HS 578T breast", "fulfilled"],
  ["CCOC(=O)CCC(NC(=O)c1ccc(Oc2nc3ccc(C(F)(F)F)cc3nc2-c2ccccc2)cc1)C(=O)OCC (stereo unspecified)", "HS 578T breast", "fulfilled"],
  ["COc1ccc(C2SCC(=O)N2c2ccc(-n3c(-c4ccccc4)nc4ccccc4c3=O)cc2)cc1OC (stereo unspecified)", "HS 578T breast", "fulfilled"],
  ["O=C(O)C1CCCN1Cc1cc2ccccc2c2ccccc12 (stereo unspecified)", "HS 578T breast", "fulfilled"],
  ["CSc1cnn(CCC#N)c(=O)n1", "HS 578T breast", "fulfilled"],
  ["C=CCC(NC(=O)C(CC(=O)OC(C)(C)C)NC(=O)OC(C)(C)C)C(=O)OC (stereo unspecified) (Boc-Asp(OtBu)-[AllylGly]-OMe; configuration not given here)", "HS 578T breast", "fulfilled"],
  ["COc1cccc(C2C(C#N)=C(N)Oc3cc(N)ccc32)c1 (stereo unspecified)", "HS 578T breast", "fulfilled"],
  ["COc1ccc(Nn2c(SCC(=O)Nc3nc(-c4ccc(Cl)cc4)cs3)nc(C)c2C)cc1", "HS 578T breast", "fulfilled"],
  ["COc1ccc(N2C(=O)C3ON(C(C(N)=O)c4ccccc4)C(c4ccc(-c5ccccc5)cc4)C3C2=O)cc1 (stereo unspecified)", "HS 578T breast", "fulfilled"],
  ["CC(C)(C)c1nc2c(o1)C(=O)c1ccccc1C2=O", "HS 578T breast", "not fulfilled"],
  ["Cn1c(=O)cc(NCc2ccc(Cl)cc2)[nH]c1=O", "HS 578T breast", "fulfilled"],
  ["CC(=O)N1CC(Nc2ccc(OC(F)(F)F)cc2)=CC1=O", "HS 578T breast", "fulfilled"],
  ["CN(C)c1ccc(C(=C2C=CC(=[N+](C)C)C=C2)c2ccc(N(C)C)cc2)cc1 (tested in a mixture with another compound)", "HS 578T breast", "not fulfilled"],
  ["NS(=O)(=O)c1cc2c(cc1Cl)NC(Cc1ccccc1)NS2(=O)=O (stereo unspecified)", "HS 578T breast", "fulfilled"],
  ["COc1ccc(NC(=O)n2nc(N)c3ccccc32)cc1OC", "HS 578T breast", "fulfilled"],
  ["CC(C)C1(C)N=C(C(F)(F)F)c2cc(C(=O)C(F)(F)F)c3ccccc3c2N1 (stereo unspecified)", "HS 578T breast", "fulfilled"],
  ["CCN(CC)CCCNc1cccc2c(SCc3ccccc3)ccnc12", "HS 578T breast", "not fulfilled"],
  ["NC(=NCCCOc1ccc(Cl)cc1)Nc1ccc(Cl)cc1", "HS 578T breast", "fulfilled"],
  ["O=C/C(=C(/Br)I)c1ccccc1", "HS 578T breast", "fulfilled"],
  ["OCCCN=NNc1ccc(-c2nc3ccccc3[nH]2)cc1", "HS 578T breast", "fulfilled"],
  ["CC1(C)N=C(C(N)=O)c2ncn(-c3ccccc3)c2N1", "HS 578T breast", "fulfilled"],
  ["O=C1NC(Cc2c[nH]c3ccccc23)C(=O)N2C(C3CCCCC3)c3[nH]c4ccccc4c3C[C@@H]12 (stereo partly specified)", "HS 578T breast", "fulfilled"],
  ["O=[N+]([O-])c1ccc(C2=NOC(c3ccccc3F)N2C23CC4CC(CC(C4)C2)C3)cc1 (stereo unspecified)", "HS 578T breast", "fulfilled"],
  ["CCCCCCCC/C=C/CCCCCCCCC1=NCCN1CCO", "HS 578T breast", "not fulfilled"],
  ["O=C1C(/C=C/c2ccc(Cl)cc2)=NNC2N1N=C1NC(=O)C3(NN12)c1ccccc1-c1ccccc13 (stereo unspecified)", "HS 578T breast", "fulfilled"],
  ["O=[N+]([O-])c1cccc2nc3ccccc3c(NCCc3cccc[n+]3[O-])c12", "HS 578T breast", "not fulfilled"],
  ["ClC1=C(Cl)C(Cl)=C(Cl)C1=C/C=C/c1ccccc1", "HS 578T breast", "not fulfilled"],
  ["COc1cc(NCCCCN=C(N)NC(N)=NC(C)C)c2ncccc2c1", "HS 578T breast", "fulfilled"],
  ["CCOc1ccc(/C(O)=C/c2nc3ccccc3nc2/C=C(\\O)c2ccc(OCC)cc2)cc1", "HS 578T breast", "fulfilled"],
  ["CCC(C)n1cc(C)c2c(C(=O)NCc3c(C)cc(C)[nH]c3=O)cc(Br)cc21 (stereo unspecified)", "HS 578T breast", "fulfilled"]
]}

====

System: RPMI-8226 leukemia
Test: NCI tumour cell line growth inhibition, 48 h
ASSAY_METRIC: TGI

{"columns": ["COMPOUND", "MEASUREMENT_TARGET", "EXPERIMENTAL_VALUE"],
 "data": [
  ["S=C(N/N=C(/c1ccccc1)c1ccccn1)Nc1ccccc1Cl", "RPMI-8226 leukemia", "> 7.31 µM"],
  ["COC(OC)c1cccc2c1C(=O)CCC1(O)c3ccccc3C1C2 (stereo not given)", "RPMI-8226 leukemia", "69.8 µM"],
  ["N=C(N)c1ccc(-c2ccc(-c3ccc(Cl)cc3Cl)s2)cc1F", "RPMI-8226 leukemia", "4.57 µM"],
  ["CN1C2CC(=O)CC1[C@H](O)[C@@H]2O", "RPMI-8226 leukemia", "> 100 µM"],
  ["CC1CC[C@@]2(OC1)OC1C[C@H]3[C@@H]4C/C(=N\\N(C)C)[C@@]5(O)CC(O)CC[C@]5(C)[C@H]4CC[C@]3(C)C1[C@@H]2C (stereo not given in full)", "RPMI-8226 leukemia", "> 100 µM"],
  ["Cc1ccc(NC(=O)NC(=O)c2ccc([N+](=O)[O-])cc2[N+](=O)[O-])cc1Oc1ncc(Cl)cn1", "RPMI-8226 leukemia", "3.08 µM"],
  ["Cc1c(CCOC=O)c(=O)[nH]c2nncn12", "RPMI-8226 leukemia", "> 100 µM"],
  ["COc1ccc(Nn2c(SCC(=O)Nc3nc(-c4ccc(Cl)cc4)cs3)nc(C)c2C)cc1", "RPMI-8226 leukemia", "> 100 µM"],
  ["Cc1cc2c(=O)n(-c3ccc(F)cc3)c(C)nc2c(C(=O)O)c1C", "RPMI-8226 leukemia", "> 100 µM"],
  ["CC1(C)CC(=O)C2=C(C1)c1c(ccc3ccccc13)NC2c1cn(Cc2ccc(Cl)cc2)c2ccccc12 (stereo not given)", "RPMI-8226 leukemia", "> 100 µM"]
]}
